Test Method Notes: Hemolytic activity in human RBC at 50 ug/ml
Type: toxicity, cell-based, Erythrocyte
Measurement Context: red blood cells (erythrocytes), at 50 µg/mL, read-out: Activity

{"columns": ["Smiles", "Unit Text", "hemolysis at 50 ug/ml"],
 "data": [
  ["C[C@H](CCC(=O)NCc1cn(CCCCn2cc(CNC(=O)CC[C@@H](C)[C@H]3CC[C@H]4[C@@H]5[C@H](OC(=O)CN)C[C@@H]6C[C@H](OC(=O)CN)CC[C@]6(C)[C@H]5C[C@H](OC(=O)CN)[C@]34C)nn2)nn1)[C@H]1CC[C@H]2[C@@H]3[C@H](OC(=O)CN)C[C@@H]4C[C@H](OC(=O)CN)CC[C@]4(C)[C@H]3C[C@H](OC(=O)CN)[C@]12C.Cl.Cl.Cl.Cl.Cl.Cl", "%", 2]
]}

Hey, just so you know, these numbers are from ChEMBL document CHEMBL5096228.
